assay: Metabolic stability in rat liver S9 fractions assessed as remaining compound after 30 mins by reverse phase HPLC with UV-detection method in presence of NADPH; assay type: ADME, subcellular, Liver S9 fraction; conditions: read-out: Stability
Quick reference: remaining at 0.5 h of the listed items.
Endpoint: remaining at 0.5 h (%)

- O=C(NCCCCCCn1ccc2ccccc21)Oc1cccnc1: 47
- NC(=O)c1cccc(-c2cccc(OC(=O)NC3CCCCC3)c2)c1 [URB-597]: 13
- O=C(NCCCCCn1ccc2ccccc21)Oc1cccnc1: 43
